Source listed as patent US11807625B2.

experiment: PK of compound of Formula (Ia) after single subcutaneous dose of solution formulations in beagle dogs; assay type: in vivo; conditions: male, beagle, dog, plasma, sc, 12 mg/kg, 1008 h; mean, n = 3 dogs; SC 12 mg/kg; solution T, 400 mg/mL
readout label: concentration at 1008 h (nM)
Numbers only, in nM.

Dear colleague, I am looking for the recorded concentration at 1008 h of the following molecule: CC(C)(C#Cc1ccc(-c2ccc(Cl)c3c(NS(C)(=O)=O)nn(CC(F)(F)F)c23)c([C@H](Cc2cc(F)cc(F)c2)NC(=O)Cn2nc(C(F)(F)F)c3c2C(F)(F)[C@@H]2C[C@H]32)n1)S(C)(=O)=O [compound of Formula (Ia)]
73.6

----------
experiment: PK of compound of Formula (Ia) after single subcutaneous dose of solution formulations in beagle dogs; format: in vivo; details: male, beagle, dog, plasma, sc, 12 mg/kg, beagle dogs, SC 12 mg/kg, 400 mg/mL solution Z (3.13% poloxamer 188), 3024 h, animals #1-#3
readout label: concentration at 3024 h (nM)
One number for each entry, in nM.

Dear colleague, I am looking for the recorded concentration at 3024 h of the following compound: CC(C)(C#Cc1ccc(-c2ccc(Cl)c3c(NS(C)(=O)=O)nn(CC(F)(F)F)c23)c([C@H](Cc2cc(F)cc(F)c2)NC(=O)Cn2nc(C(F)(F)F)c3c2C(F)(F)[C@@H]2C[C@H]32)n1)S(C)(=O)=O
3.65

----------
experiment: PK of compound of Formula (Ia) after single subcutaneous dose of solution formulations in beagle dogs; type: in vivo; conditions: male, beagle, dog, plasma, sc, 12 mg/kg, beagle dogs, SC 12 mg/kg, 400 mg/mL solution Z (3.13% poloxamer 188), 1008 h, animals #1-#3
readout label: concentration at 1008 h (nM)
One number for each entry, in nM.

Dear colleague, I am looking for the recorded concentration at 1008 h of the following compound: CC(C)(C#Cc1ccc(-c2ccc(Cl)c3c(NS(C)(=O)=O)nn(CC(F)(F)F)c23)c([C@H](Cc2cc(F)cc(F)c2)NC(=O)Cn2nc(C(F)(F)F)c3c2C(F)(F)[C@@H]2C[C@H]32)n1)S(C)(=O)=O
93.3

----------
assay: PK of compound of Formula (Ia) after single subcutaneous dose of solution formulations in beagle dogs; assay type: in vivo; settings: male, beagle, dog, plasma, sc, 12 mg/kg, male beagle dogs, single SC 12 mg/kg, 400 mg/mL solution Z (3.13% poloxamer 188), mean ± SD, n = 3; read-out: AUC0-336 h
readout label: AUC(0-t) (µM·h)
Answers are plain numbers, in µM·h.

Dear colleague, I am looking for the recorded AUC(0-t) of the following compound: CC(C)(C#Cc1ccc(-c2ccc(Cl)c3c(NS(C)(=O)=O)nn(CC(F)(F)F)c23)c([C@H](Cc2cc(F)cc(F)c2)NC(=O)Cn2nc(C(F)(F)F)c3c2C(F)(F)[C@@H]2C[C@H]32)n1)S(C)(=O)=O [compound of Formula (Ia)]
30.1

----------
assay: PK of compound of Formula (Ia) after single subcutaneous dose of solution formulations in Wistar Han rats; format: in vivo; conditions: male, Wistar Han, rat, plasma, sc, 50 mg/kg, male Wistar Han rats, single SC 50 mg/kg, 500 mg/mL solution X (5.00% ethanol, 1.91% poloxamer 188), mean ± SD, n = 3; read-out: AUC0-1680 h
readout label: AUC(0-t) (µM·h)
Numbers only, in µM·h.

Dear colleague, I am looking for the recorded AUC(0-t) of the following compound: CC(C)(C#Cc1ccc(-c2ccc(Cl)c3c(NS(C)(=O)=O)nn(CC(F)(F)F)c23)c([C@H](Cc2cc(F)cc(F)c2)NC(=O)Cn2nc(C(F)(F)F)c3c2C(F)(F)[C@@H]2C[C@H]32)n1)S(C)(=O)=O
416
